FYI, the data here is from ChEMBL document CHEMBL1811873.

- experimental.system: Peroxisome proliferator-activated receptor delta (Homo sapiens) (UniProt Q03181)
- Sequence (Q03181 whole entry): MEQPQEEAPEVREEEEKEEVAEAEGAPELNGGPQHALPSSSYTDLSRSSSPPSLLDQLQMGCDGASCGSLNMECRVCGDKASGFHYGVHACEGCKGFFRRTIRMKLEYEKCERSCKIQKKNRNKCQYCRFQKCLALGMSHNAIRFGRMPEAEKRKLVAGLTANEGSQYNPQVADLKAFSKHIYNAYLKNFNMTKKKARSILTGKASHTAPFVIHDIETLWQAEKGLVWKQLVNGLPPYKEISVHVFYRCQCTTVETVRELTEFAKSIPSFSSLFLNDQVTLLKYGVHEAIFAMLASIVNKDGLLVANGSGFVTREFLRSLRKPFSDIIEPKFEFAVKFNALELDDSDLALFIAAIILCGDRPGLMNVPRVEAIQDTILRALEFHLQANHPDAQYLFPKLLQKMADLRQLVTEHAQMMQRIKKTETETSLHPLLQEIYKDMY
- assay.comment: Agonist activity at human PPARdelta expressed in HEK293 after 8 hrs by luciferase reporter gene assay relative to GW501516
- Format: functional, cell-based
measurement.type: Emax (%)

O=C(O)CCc1ccc(CCc2ccc(N3C(=O)c4ccccc4C3=O)cc2)cc1 : 27

a. CCCOc1cc(N2C(=O)c3ccccc3C2=O)ccc1CCc1ccc(C[C@@H](CC)C(=O)O)cc1
b. O=C(O)CCCCCOc1ccc(CCc2ccc(N3C(=O)c4ccccc4C3=O)cc2)cc1
c. CCC(Cc1ccc(CCc2ccc(N3C(=O)c4ccccc4C3=O)cc2)cc1)C(=O)O (stereo not given)
d. CC[C@@H](Cc1ccc(CCc2ccc(N3C(=O)c4ccccc4C3=O)cc2OC)cc1)C(=O)O
Query: Ordering: ascending Emax. Reply: labels, ordered per the request.
Result: b, a, c, d
